Experiment: folding enthalpy; higher = less favourable; fluorescence melt of hairpins on a sequencing array, two-state fit
Conditions: sodium 0.088 M
Measured Property: folding enthalpy (kJ/mol)
// return numeric value only (unit: kJ/mol, not printed)

Problem: Entry GCCCCACGAAAGTGTGGC (((.(((....))).))) : reported folding enthalpy = ?
Result: -150

Problem: Entry GATCGCTTAGGCGATC ((((((....)))))) : reported folding enthalpy = ?
Result: -134

Problem: Entry GGAGCTCGAAAGAGATCC (((.(((....))).))) : reported folding enthalpy = ?
Result: -184

Problem: Entry CGAGCGGAAACGCCCTCG ((((((....)))..))) : reported folding enthalpy = ?
Result: -53.6

Problem: Entry GTTCTAGGAAACTGGAAC ((((.((....)).)))) : reported folding enthalpy = ?
Result: -120

Problem: Entry GTTGTCGAAAGACGCAAC ((((((....)))..))) : reported folding enthalpy = ?
Result: -39
